biological target: human DPP IV (Homo sapiens, UniProt P27487); construct: extracellular fragment of protease DPP IV (aa29-766); experiment: DPP IV activity screening (Ala-Pro-AMC fluorescence)
Sequence (P27487 29-766): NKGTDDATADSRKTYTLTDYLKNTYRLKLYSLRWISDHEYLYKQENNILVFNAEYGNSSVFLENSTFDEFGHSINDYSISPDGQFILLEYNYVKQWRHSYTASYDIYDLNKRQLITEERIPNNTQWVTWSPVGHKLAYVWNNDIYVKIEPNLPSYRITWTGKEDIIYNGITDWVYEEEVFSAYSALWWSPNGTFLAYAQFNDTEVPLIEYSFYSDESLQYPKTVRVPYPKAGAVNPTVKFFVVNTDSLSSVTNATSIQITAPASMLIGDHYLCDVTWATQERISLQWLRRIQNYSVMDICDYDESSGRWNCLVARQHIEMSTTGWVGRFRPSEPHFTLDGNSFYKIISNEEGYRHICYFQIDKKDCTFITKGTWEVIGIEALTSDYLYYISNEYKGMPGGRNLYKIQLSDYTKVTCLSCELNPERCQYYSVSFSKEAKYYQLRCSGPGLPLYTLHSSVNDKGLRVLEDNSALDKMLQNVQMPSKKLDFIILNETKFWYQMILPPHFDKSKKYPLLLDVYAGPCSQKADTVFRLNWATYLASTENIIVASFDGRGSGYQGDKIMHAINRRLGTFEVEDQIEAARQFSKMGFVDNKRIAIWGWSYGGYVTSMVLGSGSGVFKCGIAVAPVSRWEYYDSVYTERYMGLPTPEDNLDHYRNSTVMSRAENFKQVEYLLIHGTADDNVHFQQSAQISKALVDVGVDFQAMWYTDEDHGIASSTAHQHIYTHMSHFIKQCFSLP
Quantity: IC50 (nM)

N#Cc1ccccc1Cn1c(N2CCC[C@@H](N)C2)nc2cc(Cl)sc2c1=O	45.6
N#Cc1ccccc1Cn1c(N2CCC[C@@H](N)C2)nc2c(CO)csc2c1=O	18.9
CN(C)C(=O)c1cc2nc(N3CCC[C@@H](N)C3)n(Cc3ccccc3C#N)c(=O)c2s1	27
N#Cc1ccccc1Cn1c(N2CCC[C@@H](N)C2)nc2c(CO[C@H]3CCOC3)csc2c1=O	26.5
CC(C)CNC(=O)c1csc2c(=O)n(Cc3ccccc3C#N)c(N3CCC[C@@H](N)C3)nc12	15.1
CC(C)NC(=O)c1csc2c(=O)n(Cc3ccccc3C#N)c(N3CCC[C@@H](N)C3)nc12	15.1
N#Cc1ccccc1Cn1c(N2CCC[C@@H](N)C2)nc2c(Cl)csc2c1=O	36.8
CCCCNC(=O)c1csc2c(=O)n(Cc3ccccc3C#N)c(N3CCC[C@@H](N)C3)nc12	11.1
